Reference for the values: PubChem BioAssay AID1159580

- Assay overview: chemical genetic growth profiling, strain panel (AID 1159580);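 also: tested at 20 µM; growth read once vehicle control cultures reached saturation at 30 °C; 1 = growth at the plate median or of vehicle wells; lower values mean less growth of the strain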
- Condition description: S. cerevisiae deletion strains, growth OD, locus YDR159W, strain sac3
Screen size: about 5,500 compounds; about 2,000 (36%) were called active. Another 18% or so got no clear call; they are omitted. Rule as the data show it: active = normalized growth mostly below about 0.91 (no sharp cut-off); inconclusive = no clear call, values can overlap the other calls; inactive = mostly above about 0.92. The list shows a part of the results.
API: response.call in active, inactive

Query :: // param item: `CCOP(=S)(OCC)Oc1ccc2c(C)c(Cl)c(=O)oc2c1` ; yields the recorded call
Result :: inactive

Query :: Returns: the outcome recorded for `CCOC(N)=O` in this assay.
Result :: inactive

Query :: GET /call?item= `C[C@](N)(Cc1ccc(O)cc1)C(=O)O` returns the recorded outcome of this test.
Result :: inactive

Query :: Assay result, entry CC12CCC3C(CC=C4CC(O)CCC43C)C1CCC2=O (configuration not stated) — outcome?
Result :: inactive

Query :: Short answer needed: outcome of this test for `NC(=O)N/N=C\c1ccc([N+](=O)[O-])o1` ?
Result :: inactive

Now let's try a different one.
Query :: Which result was noted for this molecule in the test: C[C@]12CCC3c4ccc(OS(=O)(=O)O)cc4CCC3C1CCC2=O (some centres not stated)
Result :: inactive

* * *

Kindly state normalized growth for each of the entries shown.
- Assay overview: chemical genetic growth profiling, strain panel (AID 1159580);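 also: tested at 20 µM; growth read once vehicle control cultures reached saturation at 30 °C; 1 = growth at the plate median or of vehicle wells; lower values mean less growth of the strain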
- Condition description: S. cerevisiae deletion strains, growth OD, locus YIL073C, strain SPO22, stronger effect = lower value
Hit rate of the full screen: of about 5,500 compounds, about 2,000 (36%) were called active. About 18% were inconclusive and are not listed. The list shows a part of the results.
Answers are plain numbers.

Example entries and their recorded answers appear below.
Query :: Could you share which normalized growth value was measured for COc1cc2c3cc1Oc1cc(ccc1O)OC1c4c(cc(OC)c(O)c4Oc4ccc(cc4)CC3N(C)CC2)CCN1C (stereo unspecified) ?
Result :: 0.899

Query :: GET /values?readout=normalized growth&item= `COc1ccc(-c2cc(C(F)F)nn2-c2ccc(S(N)(=O)=O)cc2)cc1F`
Result :: 1.07

Query :: Please report the recorded normalized growth for `CCn1cc(C(=O)O)c(=O)c2cnc(N3CCNCC3)nc21` .
Result :: 0.961

Query :: Sample `Oc1ccc(/C=C/c2cc(O)cc(O)c2)cc1` — what was its normalized growth?
Result :: 0.896

Query :: Record request: normalized growth value, item CC[C@@]1(C2O[C@@H](C3O[C@@](O)(CC)[C@H](C)C[C@@H]3C)C[C@@H]2C)CC[C@H]([C@]2(C)CCC3(C[C@H](O)[C@@H](C)[C@@H]([C@H](C)[C@@H](OC)[C@H](C)C(=O)O)O3)O2)O1 (stereo partly specified)
Result :: 0.915

Lab note: each compound below needs its normalized growth filled in.
1. COc1cc(O)cc(/C=C/c2ccccc2)c1
2. C=CCN1CC[C@]23c4c5ccc(O)c4OC2C(=O)CC[C@@]3(O)[C@H]1C5 (stereo partly specified)
3. Oc1cc(O)cc(/C=C/c2ccccc2)c1
4. O=C(O)c1cc(=O)c2c(OCC(O)COc3cccc4oc(C(=O)O)cc(=O)c34)cccc2o1
5. CCn1cc(C(=O)O)c(=O)c2ccc(C)nc21
6. O=C1O[C@@H](CO)[C@H](O)[C@@H](O)[C@@H]1O

Result ::
0.809
1.02
0.963
1.06
0.97
1.05

Okay, here is my list. What is normalized growth for each of these?
1. OC/C=C/c1ccc(O)c(O)c1
2. COc1ccc(C[C@H](N)C(=O)N[C@@H]2[C@@H](CO)OC(n3cnc4c(N(C)C)ncnc43)[C@@H]2O)cc1 (stereo partly specified)
3. Nc1nccs1

Result ::
1. 0.912
2. 1.06
3. 1.04

Batch of 2 compounds: report normalized growth for each.
1. CC12CCCC(O)(C1)C1CC(C)(C)C1CC2 (stereo unspecified)
2. COc1cc(C)c2c(c1C=O)Oc1c(c(C)c(O)c3c1C(O)OC3=O)OC2=O (stereo unspecified)

Result ::
1.03
1.06
